# Tested on: A549 NSCLC
# Protocol details: NCI tumour cell line growth inhibition, 48 h
Reported property: GI50

Example cases with answers are listed next.
molecule=CC(C)[C@@]12C[C@@H](OC(=O)[C@H]3CO3)[C@@](C)(O1)[C@@H]1CC[C@@H](C)[C@H]1[C@@H]2OC(=O)/C=C/c1ccccc1 reported_result="16.7 µM"
molecule="CS(=O)CCCCCN=C=S (centres undefined)" reported_result="7.52 µM"
molecule=O=C1C(Br)=CC2(C=C1Br)CCN=c1c2c(O)c2nc3ccccc3c3ccnc1c23 reported_result="6.69 µM"
molecule=NC(=NCCCOc1ccc(Cl)cc1)Nc1ccc(Cl)cc1 reported_result="3.48 µM"
molecule="Cc1ccc(C2NC(=S)NC3=C2CCOc2c3ccc3ccccc23)cc1 (centres undefined)" reported_result="> 100 µM"

Go through the items and report each one's GI50.
1. CC(=O)Nc1ccc(Sc2ccc([N+](=O)[O-])o2)cc1
2. O=C1OCC(c2cccs2)=C1Cl

Outgoing:
1. 6.37 µM
2. 41.1 µM

Go through the items and report each one's GI50.
1. CCCCCC(O)C1C(=O)OC(C)C(O)/C=C/C=C/C=C/C=C\C=C(\C)C(O)CC(O)CC(O)CC(O)CC(O)CC(O)CC1O (centres undefined)
2. COc1cccc(C2C(C#N)=C(N)Oc3cc(N)ccc32)c1 (centres undefined)

Outgoing:
> 100 µM
0.572 µM
